Examples of compounds with documented pIC50 follow.
- assay: Cytotoxicity against human Jeko cells assessed as reduction in cell viability after 72 hrs by MTT assay
- Type: functional, cell-based
- run.parameters: JeKo-1, 72 h
pIC50: −log10 of the molar value.
readout.type: pIC50

[[record]]
compound = "O=C1N=C(N2N=C(c3ccccc3)CC2c2ccc(Cl)cc2)S/C1=C1\\C(=O)Nc2ccccc21 (stereo unspecified)"
qualifier = "<"
observed_measurement = 4.00

[[record]]
compound = "O=C1N=C(Nc2ccc(O)cc2)S/C1=C\\c1ccc(Cl)cc1"
qualifier = "<"
observed_measurement = 4.00

[[record]]
compound = "CC1(C)CC(NC(=O)[C@H](Cc2ccc(OCc3c(Cl)cccc3Cl)cc2)NC(=O)OCC2c3ccccc3-c3ccccc32)CC(C)(C)N1"
qualifier = "="
observed_measurement = 4.28

[[record]]
compound = "N=C(N)NCCC[C@H](NC(=O)C1CC2CCCCC2N1C(=O)[C@H](NC(=O)[C@H](CO)NC(=O)[C@@H](NC(=O)CNC(=O)[C@@H]1C[C@@H](O)CN1C(=O)[C@@H]1CCCN1C(=O)[C@H](CCCNC(=N)N)NC(=O)[C@@H](CCCNC(=N)N)NC(=O)/C=C/c1c(F)c(F)c(F)c(F)c1F)C1Cc2ccccc2C1)C1Cc2ccccc2C1)C(=O)O (stereo partly specified)"
qualifier = "="
observed_measurement = 4.30

[[record]]
compound = "COc1ccc(-c2nnc(NC(=O)CN3C(=O)S/C(=C\\c4ccc(N(C)C)cc4)C3=O)o2)cc1"
qualifier = "<"
observed_measurement = 4.00

[[record]]
compound = "CC1(C)CC(NC(=O)[C@H](Cc2ccc(OCc3c(Cl)cccc3Cl)cc2)NC(=O)/C=C/c2c(F)c(F)c(F)c(F)c2F)CC(C)(C)N1"
qualifier = "="
observed_measurement = 4.31

